Attribution: patent US20250289893A1

Assayed target: T1, Cynomolgus monkey CD1a protein (Cynomolgus monkey)
T1 chain: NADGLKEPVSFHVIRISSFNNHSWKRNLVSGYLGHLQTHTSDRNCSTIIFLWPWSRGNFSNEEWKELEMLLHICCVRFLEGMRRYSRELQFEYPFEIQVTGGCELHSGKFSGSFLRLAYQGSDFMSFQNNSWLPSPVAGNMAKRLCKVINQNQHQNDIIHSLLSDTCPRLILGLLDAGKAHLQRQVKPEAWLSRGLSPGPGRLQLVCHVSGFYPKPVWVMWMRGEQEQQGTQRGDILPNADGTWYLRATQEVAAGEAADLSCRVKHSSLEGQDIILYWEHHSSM
Experiment description: ELISA, 10 µg/ml antibody
Parameter measured: Optical Density (OD)

{"Binder": "116 (VR12117) (antibody, V domains shown, also called OX116) VH: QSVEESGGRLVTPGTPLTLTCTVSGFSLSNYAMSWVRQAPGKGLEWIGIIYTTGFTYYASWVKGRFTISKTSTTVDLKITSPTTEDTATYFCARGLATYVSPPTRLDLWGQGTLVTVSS VL: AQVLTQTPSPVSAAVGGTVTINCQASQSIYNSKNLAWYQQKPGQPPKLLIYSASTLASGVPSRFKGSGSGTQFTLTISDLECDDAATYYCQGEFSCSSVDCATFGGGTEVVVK", "Parameter measured": "Optical Density (OD)", "Units of measure": "OD", "Result value": 0.16}
{"Binder": "77A (VR11851) (antibody, V domains shown, also called OX77a; antibody 77a) VH: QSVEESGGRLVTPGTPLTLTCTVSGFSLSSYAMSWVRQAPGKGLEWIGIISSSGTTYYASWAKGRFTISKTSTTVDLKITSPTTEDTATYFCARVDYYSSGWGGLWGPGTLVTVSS VL: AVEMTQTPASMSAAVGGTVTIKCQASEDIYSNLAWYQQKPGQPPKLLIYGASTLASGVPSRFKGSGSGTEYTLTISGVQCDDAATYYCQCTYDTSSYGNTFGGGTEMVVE", "Parameter measured": "Optical Density (OD)", "Units of measure": "OD", "Result value": 0.52}
{"Binder": "111 (VR12113) (antibody, V domains shown, also called OX111) VH: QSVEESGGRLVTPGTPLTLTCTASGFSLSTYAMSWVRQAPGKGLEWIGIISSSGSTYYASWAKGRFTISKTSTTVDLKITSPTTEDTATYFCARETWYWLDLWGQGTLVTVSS VL: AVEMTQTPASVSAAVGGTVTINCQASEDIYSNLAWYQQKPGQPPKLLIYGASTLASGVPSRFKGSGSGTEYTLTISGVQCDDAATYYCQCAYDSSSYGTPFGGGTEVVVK", "Parameter measured": "Optical Density (OD)", "Units of measure": "OD", "Result value": 0.79}
{"Binder": "16 (VR11834) (antibody, V domains shown, also called OX16; antibody 16) VH: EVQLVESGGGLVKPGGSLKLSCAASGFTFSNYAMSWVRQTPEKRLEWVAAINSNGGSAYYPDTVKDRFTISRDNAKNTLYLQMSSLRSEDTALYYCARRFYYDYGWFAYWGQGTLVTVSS VL: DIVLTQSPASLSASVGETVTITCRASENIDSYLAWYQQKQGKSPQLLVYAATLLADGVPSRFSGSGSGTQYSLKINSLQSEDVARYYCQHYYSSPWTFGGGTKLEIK", "Parameter measured": "Optical Density (OD)", "Units of measure": "OD", "Result value": 0.49}
